- System: Canis familiaris
- ASSAY_EXPLANATION: Tested for percent increase in coronary sinus partial pressure of oxygen (PO2) in open chest anesthetized dog at intravenous dosage of 0.01 mg/kg
- Assay type: functional, Canis lupus familiaris
Collected PO2 values appear next to each entry.
Give just the number in %; leave the unit off.

Fill in PO2 for record Nc1c2ncn(C3O[C@H](C(=O)NC4CC4)[C@@H](O)[C@H]3O)c2nc[n+]1[O-] (some centres undefined)
66

State, in one line, measured PO2 of NC(=O)[C@H]1OC(n2cnc3c(N)ncnc32)[C@H](O)[C@@H]1O (some centres undefined)
79

Please look at this compound and report its PO2: CC(=O)OC1[C@@H](C(=O)NC2CC2)O[C@@H](n2cnc3c(N)ncnc32)[C@H]1OC(C)=O (some centres undefined)
67

For CCNC(=O)[C@H]1O[C@@H](n2cnc3c(N)ncnc32)[C@@H](OC(C)=O)C1OC(C)=O (some centres undefined) , write its PO2.
52

# return recorded PO2 for entry CONC(=O)[C@H]1O[C@@H](n2cnc3c(N)ncnc32)[C@H](O)[C@@H]1O
157

Give the measured PO2 for C=CCNC(=O)[C@H]1OC(n2cnc3c(N)ncnc32)[C@H](O)[C@@H]1O (some centres undefined)
129

New cases:
Write down PO2 measured for item CCNC(=O)[C@H]1O[C@@H](n2cnc3c(N)ncnc32)[C@H](O)[C@@H]1O
250

Give the reported PO2 for this compound. CC(C)NC(=O)[C@H]1OC(n2cnc3c(N)ncnc32)[C@H](O)[C@@H]1O (some centres undefined)
43

Tell us which PO2 value is on record for Nc1ncnc2c1ncn2C1O[C@H](C(=O)NCCO)[C@@H](O)[C@H]1O (some centres undefined)
75

###

- Tested on: Canis familiaris
- ASSAY_EXPLANATION: Total time in minutes elapsed from the initiation of the change until return to the pretest value of blood pressure in coronary sinus of anesthetized dog at intravenous dosage of 0.01 mg/kg
- Assay type: functional, Canis lupus familiaris
ENDPOINT_LABEL: Duration (min)
Number in min, nothing else.

Example results:
In one line, give reported Duration of the entry CC(=O)OC1[C@@H](C(=O)NC2CC2)O[C@@H](n2cnc3c(N)ncnc32)[C@H]1OC(C)=O (stereo partly drawn) .
270

Provide one value: measured Duration of CCNC(=O)[C@H]1O[C@@H](n2cnc3c(N)ncnc32)[C@@H](OC(C)=O)C1OC(C)=O (stereo partly drawn)
70

Below: the item to evaluate.
Identify Duration associated with the molecule CONC(=O)[C@H]1O[C@@H](n2cnc3c(N)ncnc32)[C@H](O)[C@@H]1O
41

###

- ASSAY_EXPLANATION: Lethal dose in mice after intraperitoneal administration
- Type: toxicity, organism-based
- APPLIED_CONDITIONS: mouse, in vivo, ip
# LD50 values compiled below
The answer is to be given in mg/kg; state only the numeric part.

Here's what some known entries look like.
Item C#CCNC(=O)[C@H]1OC(n2cnc3c(N)ncnc32)[C@H](O)[C@@H]1O (stereo not given in full) : provide LD50
200

Assign LD50 to the following record: CC(C)NC(=O)[C@H]1OC(n2cnc3c(N)ncnc32)[C@H](O)[C@@H]1O (stereo not given in full)
5

Continuing:
Please look at this compound and report its LD50: CC(=O)OC1[C@@H](C(=O)NC2CC2)O[C@@H](n2cnc3c(N)ncnc32)[C@H]1OC(C)=O (stereo not given in full)
5
